# method_description: Antiproliferative activity against human HCV29T cells after 72 hrs by sulforhodamine B assay
# Type: functional
# condition_summary: read-out: ID50 (the source's name)
The entries below are paired with their reported IC50.

{"given_smiles": "COc1ccc(/C=N/c2nc3ccccc3[nH]2)cc1", "IC50 [µM]": 179}
{"given_smiles": "Brc1ccc(/C=N/c2nc3ccccc3[nH]2)cc1", "IC50 [µM]": 32}
{"given_smiles": "COc1cc(/C=N/c2nc3ccccc3[nH]2)cc(OC)c1OC", "IC50 [µM]": 52.4}
{"given_smiles": "Clc1ccccc1/C=N/c1nc2ccccc2[nH]1", "IC50 [µM]": 31.7}
{"given_smiles": "COc1ccc(/C=N/c2nc3ccccc3[nH]2)cc1OC", "IC50 [µM]": 106}
{"given_smiles": "O=[N+]([O-])c1ccc(/C=N/c2nc3ccccc3[nH]2)cc1", "IC50 [µM]": 88.3}
{"given_smiles": "FC(F)(F)c1ccc(/C=N/c2nc3ccccc3[nH]2)cc1", "IC50 [µM]": 200}
{"given_smiles": "Brc1ccccc1/C=N/c1nc2ccccc2[nH]1", "IC50 [µM]": 35.3}
{"given_smiles": "Clc1cccc(/C=N/c2nc3ccccc3[nH]2)c1", "IC50 [µM]": 75.5}
